IC50 reference
# Organism: Mus musculus
# assay_procedure: Compound tested for inhibitory activity of foam cell formation in mouse peritoneal macrophages
# Type: functional

>  <substance_smiles>
Cc1cc(C)c(NC(=O)N(Cc2cccc(-c3cc[nH]n3)c2)C2CCCCCC2)c(C)c1

>  <quantity>
IC50

>  <result>
460 nM

$$$$
>  <substance_smiles>
CC(C)c1cccc(C(C)C)c1OC(=O)NS(=O)(=O)Oc1c(C(C)C)cccc1C(C)C

>  <quantity>
IC50

>  <result>
55000 nM

$$$$

Kindly consider the entry below.
Query: Entry "O=C(Nc1c(F)cc(F)cc1F)N(Cc1cccc(-c2cc[nH]n2)c1)C1CCCCCC1" has what IC50?
Response: 580 nM
